system: APAE006 (strain of P. aeruginosa in which all efflux pumps are inactivated); experiment: microbe, parasite or virus in culture; type: cell-based; settings: Pseudomonas aeruginosa, read-out: MIC APAE006, APAE006, all efflux pumps inactivated
Catalogue of compounds with associated MIC

Compound	Target Of Assay	MIC
NC[C@H](NC(=O)c1ccc(C#Cc2ccc(CNC(=O)CCC(=O)O)cc2)cc1)C(=O)NO [Example 137-11]	APAE006 (strain of P. aeruginosa in which all efflux pumps are inactivated)	2 to 16 µg/mL
CC(C)(N)[C@H](NC(=O)c1ccc(C#CC#Cc2cccs2)cc1)C(=O)NO [Example 88-13]	APAE006 (strain of P. aeruginosa in which all efflux pumps are inactivated)	< 2 µg/mL
CC(C)(N)[C@H](NC(=O)c1ccc(C#CC#CC2CCC2)cc1)C(=O)NO [Example 91-16]	APAE006 (strain of P. aeruginosa in which all efflux pumps are inactivated)	< 2 µg/mL
CC(C)(N)[C@H](NC(=O)c1ccc(C#CC#Cc2cncnc2)cc1)C(=O)NO [Example 89-6]	APAE006 (strain of P. aeruginosa in which all efflux pumps are inactivated)	< 2 µg/mL
C[C@@H](O)[C@H](NC(=O)c1ccc(C#CC#Cc2ccc(C(F)(F)F)cc2)cc1)C(=O)NO [Example 82-22]	APAE006 (strain of P. aeruginosa in which all efflux pumps are inactivated)	16 to 64 µg/mL
C[C@@H](N)[C@H](NC(=O)c1ccc(C#CC(O)c2ccc(CO)cc2)cc1)C(=O)NO (stereo partly shown) [Example 137-18]	APAE006 (strain of P. aeruginosa in which all efflux pumps are inactivated)	2 to 16 µg/mL
CC(C)(N)[C@H](NC(=O)c1ccc(C#Cc2ccc(CN3CCS(=O)(=O)CC3)cc2)cc1)C(=O)NO [Example 122-4]	APAE006 (strain of P. aeruginosa in which all efflux pumps are inactivated)	< 2 µg/mL
CC(C)CCC#CC#Cc1ccc(C(=O)N[C@H](C(=O)NO)[C@@H](C)N)cc1 [Example 91-28]	APAE006 (strain of P. aeruginosa in which all efflux pumps are inactivated)	< 2 µg/mL
C[C@@H](N)[C@H](NC(=O)c1ccc(C#CC#Cc2ccc(CNCCF)cc2)cc1)C(=O)NO [Example 86-5]	APAE006 (strain of P. aeruginosa in which all efflux pumps are inactivated)	< 2 µg/mL
C[C@@H](N)[C@H](NC(=O)c1ccc(C#CC#Cc2ccc(CN3CCS(=O)(=O)CC3)cc2)cc1)C(=O)NO [Example 86-6]	APAE006 (strain of P. aeruginosa in which all efflux pumps are inactivated)	< 2 µg/mL
C[C@@H](O)[C@H](NC(=O)c1ccc(C#C/C=C/C2CC2)cc1)C(=O)NO [Example 107-3]	APAE006 (strain of P. aeruginosa in which all efflux pumps are inactivated)	< 2 µg/mL
CC(C)(N)[C@@H](NC(=O)c1ccc(C#CC#CC2CC2)cc1)C(=O)NO [Example 91-11]	APAE006 (strain of P. aeruginosa in which all efflux pumps are inactivated)	< 2 µg/mL
CC(C)(N)[C@H](NC(=O)c1ccc(C#CC#Cc2ccc(F)cc2)cc1)C(=O)NO [Example 82-28]	APAE006 (strain of P. aeruginosa in which all efflux pumps are inactivated)	< 2 µg/mL
C[C@@H](O)[C@H](NC(=O)c1ccc(/C=C/C#Cc2ccccc2F)cc1)C(=O)NO [Example 114-12]	APAE006 (strain of P. aeruginosa in which all efflux pumps are inactivated)	< 2 µg/mL
CC(C)(O)[C@H](NC(=O)c1ccc(C#CC#Cc2ccsc2)cc1)C(=O)NO [Example 88-14]	APAE006 (strain of P. aeruginosa in which all efflux pumps are inactivated)	< 2 µg/mL
CC(C)C#CC#Cc1ccc(C(=O)N[C@H](C(=O)NO)C(C)(C)N)cc1 [Example 91-15]	APAE006 (strain of P. aeruginosa in which all efflux pumps are inactivated)	< 2 µg/mL

====

Catalogue of compounds with associated MIC
system: APAE001 (ATCC27853); assay: MIC broth microdilution, APAE001; type: cell-based, P. aeruginosa; settings: Pseudomonas aeruginosa, ATCC27853, read-out: MIC APAE001, APAE001 is ATCC27853
Readout: MIC

Compound	Target Of Assay	Meas Value
C[C@@H](O)[C@H](NC(=O)c1ccc(C#C/C=C/c2ccc(CNC3CC3)cc2)cc1)C(=O)NO	APAE001 (ATCC27853)	2 to 16 µg/mL
C[C@@H](N)[C@H](NC(=O)c1ccc(C#Cc2ccc(CN3CCC(F)(F)CC3)cc2)cc1)C(=O)NO	APAE001 (ATCC27853)	2 to 16 µg/mL
C[C@@H](N)[C@H](NC(=O)c1ccc(C#CC#CC2CC2)cc1)C(=O)NO	APAE001 (ATCC27853)	< 2 µg/mL
C[C@@H](O)[C@H](NC(=O)c1ccc(/C=C/C#Cc2ccc(CO)cc2)cc1)C(=O)NO	APAE001 (ATCC27853)	2 to 16 µg/mL
C[C@@H](N)[C@H](NC(=O)c1ccc(C#CC#Cc2ccc(Cl)cc2)cc1)C(=O)NO	APAE001 (ATCC27853)	16 to 64 µg/mL
CC(C)(O)[C@H](NC(=O)c1ccc(C#C/C=C/c2ccccc2)cc1)C(=O)NO	APAE001 (ATCC27853)	< 2 µg/mL
O=C(N[C@H](C(=O)NO)c1ccsc1)c1ccc(C#Cc2ccc(CN3CCOCC3)cc2)cc1	APAE001 (ATCC27853)	2 to 16 µg/mL
CN(C)CC(=O)NC[C@H](NC(=O)c1ccc(C#C/C=C/c2ccc(CN3CCOCC3)cc2)cc1)C(=O)NO	APAE001 (ATCC27853)	2 to 16 µg/mL
C[C@@H](N)[C@H](NC(=O)c1ccc(C#Cc2ccc(CS(C)(=O)=O)cc2)cc1)C(=O)NO	APAE001 (ATCC27853)	2 to 16 µg/mL
C[C@@H](N)[C@H](NC(=O)c1ccc(C#CC#Cc2ccc(F)cc2)cc1)C(=O)NO	APAE001 (ATCC27853)	2 to 16 µg/mL
C[C@@H](N)[C@H](NC(=O)c1ccc(/C=C/C#Cc2ccc(CO)cc2)cc1)C(=O)NO	APAE001 (ATCC27853)	< 2 µg/mL
C[C@@H](O)[C@H](NC(=O)c1ccc(C#C/C=C/c2ccccc2)cc1)C(=O)NO	APAE001 (ATCC27853)	2 to 16 µg/mL
C[C@H](N)[C@H](NC(=O)c1ccc(C#Cc2ccc(CO)cc2)cc1)C(=O)NO	APAE001 (ATCC27853)	< 2 µg/mL
C[C@@H](N)[C@H](NC(=O)c1ccc(/C=C/C#Cc2ccc(F)cc2)cc1)C(=O)NO	APAE001 (ATCC27853)	2 to 16 µg/mL
C[C@@H](O)[C@H](NC(=O)c1ccc(/C=C/C#Cc2ccc(CN3CCOCC3)cc2)cc1)C(=O)NO [Example 30-12a]	APAE001 (ATCC27853)	< 2 µg/mL

====

System: APAE001 (ATCC27853)
Test: MIC broth microdilution, APAE001
Type: cell-based, P. aeruginosa
Details: Pseudomonas aeruginosa, ATCC27853, read-out: MIC APAE001, APAE001 is ATCC27853
Experimental: Bacterial isolates were cultivated from −70° C. frozen stocks by overnight passages at 35° C. in ambient air on Mueller-Hinton agar (Beckton Dickinson, Franklin Lakes, N.J.). […] Minimum Inhibitory Concentrations (MICs) were determined by the broth microdilution method in accordance with the Clinical and Laboratory Standards Institute (CLSI) guidelines. […]
Catalogue of molecules with associated MIC
Readout: MIC

Molecule	Meas Value
C[C@@H](N)[C@H](NC(=O)c1ccc(C#CC#Cc2cccc(Cl)c2)cc1)C(=O)NO [Example 82-9]	2 to 16 µg/mL
CC(C)(N)C(NC(=O)c1ccc(C#Cc2ccc(CNCC(F)F)cc2)cc1)C(=O)NO (stereo not drawn) [Example 137-7]	< 2 µg/mL
C[C@@H](N)[C@H](NC(=O)c1ccc(C#CC#Cc2ccc(CNC3CC3)cc2)cc1)C(=O)NO [Example 86-3]	< 2 µg/mL
C[C@H](N)[C@H](NC(=O)c1ccc(C#Cc2ccc(CNC3CC3)cc2)cc1)C(=O)NO [Example 133-3]	< 2 µg/mL
CC(C)[C@H](NC(=O)c1ccc(C#C/C=C/c2ccc(CN3CCOCC3)cc2)cc1)C(=O)NO [Example 96-3]	2 to 16 µg/mL
NC[C@H](NC(=O)c1ccc(C#C/C=C/c2ccc(CN3CCOCC3)cc2)cc1)C(=O)NO [Example 98-1]	< 2 µg/mL
C[C@@H](N)[C@H](NC(=O)c1ccc(C#Cc2ccc(CN3CCN(C)CC3)cc2)cc1)C(=O)NO [Example 115-4]	< 2 µg/mL
C[C@H](NCC(=O)NC[C@H](NC(=O)c1ccc(C#C/C=C/c2ccccc2)cc1)C(=O)NO)c1ccccc1 [Example 105-2]	2 to 16 µg/mL
O=C(NO)[C@@H](Cc1ccccc1)NS(=O)(=O)c1ccc(C#Cc2ccc(CN3CCOCC3)cc2)cc1 [Example 62-4]	> 64 µg/mL
O=C(N[C@H](C(=O)NO)C1CCCC1)c1ccc(C#Cc2ccc(CN3CCOCC3)cc2)cc1 [Example 66-6]	16 to 64 µg/mL
C[C@H](N)[C@H](NC(=O)c1ccc(C#Cc2ccccc2)cc1)C(=O)NO [Example 133-1]	< 2 µg/mL
C[C@@H](N)[C@H](NC(=O)c1ccc(C#Cc2ccncc2)cc1)C(=O)NO [Example 133-8]	2 to 16 µg/mL
C[C@@H](N)[C@H](NC(=O)c1ccc(C#CC#Cc2ccccc2F)cc1)C(=O)NO [Example 82-7]	< 2 µg/mL
COCc1ccc(C#C/C=C/c2ccc(C(=O)N[C@H](C(=O)NO)[C@@H](C)N)cc2)cc1 [Example 113-9]	< 2 µg/mL
O=C(NO)[C@H](COCc1ccccc1)NS(=O)(=O)c1ccc(C#Cc2ccc(CN3CCOCC3)cc2)cc1 [Example 62-5]	> 64 µg/mL
